Target: T1, rat α-CGRP (1-37) (rat, C-terminal amide; N-terminal biotin when captured on the SA chip)
T1 construct: also called rat α (1-37); α-rat
T1 peptide: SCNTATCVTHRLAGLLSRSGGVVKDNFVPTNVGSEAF
Assay: Biacore, 37°C, Fab over CGRP on SA chip
Method: Biacore assay for affinity determination. […] All Biacore assays were conducted in HBS-EP running buffer (10 mM HEPES pH 7.4, 150 mM NaCl, 3 mM EDTA, 0.005% v/v polysorbate P20). CGRP surfaces were prepared by diluting the N-biotinylated CGRP to a concentration of less than 0.001 mg/mL into HBS-EP buffer and injecting it across the SA sensor chip using variable contact times. […] Samples were typically injected for 1 minute at 100 μL/min and dissociation times of at least 10 minutes were allowed. […]
Property: koff; scope: individual binders
State the answer as a number, implicitly in s⁻¹.

BINDER	UNIT SPEC	koff
G1 variant M65 Fab (Fab, V domains shown, Fab; constant domains as m1) VH: EVQLVESGGGLVQPGGSLRLSCAASGFTFSNYWISWVRQAPGKGLEWVAEIRSKSDCSATHYAEAVKGRFTISRDNAKNSLYLQMNSLRAEDTAVYYCTVYFDYGLAIQNYWGQGTLVTVSS VL: EIVLTQSPATLSLSPGERATLSCKASKNVGTYVSWYQQKPGQAPRLLIYAASNRYIGIPARFSGSGSGTDFTLTISSLEPEDFAVYYCSQSYNYPYTFGQGTKLEIK	s⁻¹	0.00407
G1 variant M62 Fab (Fab, V domains shown, Fab; constant domains as m1) VH: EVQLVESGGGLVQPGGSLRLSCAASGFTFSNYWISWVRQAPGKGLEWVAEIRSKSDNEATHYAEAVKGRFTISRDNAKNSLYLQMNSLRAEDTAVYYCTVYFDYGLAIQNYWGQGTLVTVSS VL: EIVLTQSPATLSLSPGERATLSCKASKNVGTYVSWYQQKPGQAPRLLIYGHSNRYTGIPARFSGSGSGTDFTLTISSLEPEDFAVYYCSQSYNYPYTFGQGTKLEIK	s⁻¹	0.00575
G1 variant M12 Fab (Fab, V domains shown, Fab; constant domains as m1) VH: EVQLVESGGGLVQPGGSLRLSCAASGFTFSNYWISWVRQAPGKGLEWVAEIRSESDASATHYAEAVKGRFTISRDNAKNSLYLQMNSLRAEDTAVYYCSVYFDYGLAIQNYWGQGTLVTVSS VL: EIVLTQSPATLSLSPGERATLSCKASKRVTTYVSWYQQKPGQAPRLLIYGASNRYLGIPARFSGSGSGTDFTLTISSLEPEDFAVYYCSQSYNYPYTFGQGTKLEIK	s⁻¹	0.00194

Would you kindly look at the next entry?
Qu. Give the reported koff for this binder. G1 variant M25 Fab (Fab, V domains shown, Fab; constant domains as m1) VH: EVQLVESGGGLVQPGGSLRLSCAASGFTFSNYWISWVRQAPGKGLEWVAEIRSESDASATHYAEAVKGRFTISRDNAKNSLYLQMNSLRAEDTAVYYCTVYFDYGLAIQNYWGQGTLVTVSS VL: EIVLTQSPATLSLSPGERATLSCKASKNVTTYVSWYQQKPGQAPRLLIYGASNRYLGIPARFSGSGSGTDFTLTISSLEPEDFAVYYCSQSYNYPYTFGQGTKLEIK
Ans. 0.0014
